Attribution: patent US20250214966A1

# Test: Dynamic vapor sorption of salts (Table 14)
# Assay type: physicochemical
# Test Conditions: 25° C.; ramping 40-90% RH

Compound | Value Units | DVS weight change
Nc1nccc(Sc2cnc(N3CCC4(CC3)Cc3ccccc3[C@H]4N)nn2)c1Cl.O=P(O)(O)O [Example 4] | % | 6.3
Nc1nccc(Sc2cnc(N3CCC4(CC3)Cc3ccccc3[C@H]4N)nn2)c1Cl.O=C(O)C(O)C(O)C(=O)O | % | 5.8
Nc1nccc(Sc2cnc(N3CCC4(CC3)Cc3ccccc3[C@H]4N)nn2)c1Cl.O=C(O)/C=C/C(=O)O | % | 2.1
Nc1nccc(Sc2cnc(N3CCC4(CC3)Cc3ccccc3[C@H]4N)nn2)c1Cl.O=P(O)(O)O [Example 5] | % | 7.6
